Every entry's value here was drawn from PubChem BioAssay (NCATS).

Molecular target: Glucocorticoid receptor (Homo sapiens) (UniProt P04150)
Sequence (P04150 whole entry, looked up): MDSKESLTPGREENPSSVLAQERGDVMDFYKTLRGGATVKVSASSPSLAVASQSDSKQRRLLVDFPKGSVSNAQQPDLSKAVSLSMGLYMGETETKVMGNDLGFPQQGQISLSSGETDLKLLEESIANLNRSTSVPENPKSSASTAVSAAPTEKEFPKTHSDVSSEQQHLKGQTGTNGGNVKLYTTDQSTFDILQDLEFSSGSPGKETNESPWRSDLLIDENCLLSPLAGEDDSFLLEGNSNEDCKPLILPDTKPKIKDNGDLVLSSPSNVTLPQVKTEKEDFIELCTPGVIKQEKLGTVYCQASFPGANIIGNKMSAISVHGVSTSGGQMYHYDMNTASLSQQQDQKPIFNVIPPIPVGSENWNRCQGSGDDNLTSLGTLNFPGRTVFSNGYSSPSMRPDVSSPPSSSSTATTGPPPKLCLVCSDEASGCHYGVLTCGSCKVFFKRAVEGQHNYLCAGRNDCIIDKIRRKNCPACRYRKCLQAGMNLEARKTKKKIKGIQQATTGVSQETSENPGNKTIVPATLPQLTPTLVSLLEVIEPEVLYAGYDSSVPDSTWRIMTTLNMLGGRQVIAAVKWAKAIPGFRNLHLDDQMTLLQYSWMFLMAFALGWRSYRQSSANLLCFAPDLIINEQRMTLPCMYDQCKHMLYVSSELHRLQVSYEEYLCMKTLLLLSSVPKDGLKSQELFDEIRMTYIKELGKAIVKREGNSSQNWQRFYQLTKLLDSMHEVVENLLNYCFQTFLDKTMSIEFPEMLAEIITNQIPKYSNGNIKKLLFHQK
Assay: GR-EFC Redistribution (AID 451)
Settings: CHO-K1 GR-EFC translocation, beta-gal luminescence, 2 h
Activity calls are given as the source filed them. Calls follow the shape of the full dose curve.
Classes used: active, inactive

# molecule, class_assignment
measured = [
    ("OC[C@@H](O)CN1CCN(c2ccccc2)CC1", "inactive"),
    ("CC(C)(C)NC[C@H](O)COc1cccc2c1CCC(=O)N2", "inactive"),
    ("C[C@@]12CC3CC(N)(C1)C[C@@](C)(C3)C2", "inactive"),
    ("C=C1CC[C@H](O)C/C1=C/C=C1\\CCC[C@]2(C)[C@H]1CC[C@H]2[C@@H](C)/C=C\\[C@@H](C)C(C)C", "inactive"),
    ("NS(=O)(=O)c1cc2c(cc1Cl)N[C@@H](CC1CCCC1)NS2(=O)=O", "inactive"),
    ("CC(=O)Nc1cc2ccccc2oc1=O", "inactive"),
    ("CCN1CCC[C@@H](OC(=O)C(c2ccccc2)c2ccccc2)C1", "inactive"),
    ("CN1CC[C@@]23c4ccccc4N[C@H]1[C@]21CCN(C)[C@@H]3Nc2ccccc21", "inactive"),
    ("O[C@H](c1cc(C(F)(F)F)nc2c(C(F)(F)F)cccc12)[C@H]1CCCCN1", "inactive"),
    ("Clc1ccc([C@H](Cn2ccnc2)OCc2csc3c(Cl)cccc23)c(Cl)c1", "inactive"),
    ("C[N+]1(C)C[C@@H](O)C[C@@H]1C(=O)[O-]", "inactive"),
    ("Nc1nc(=S)c2ncn([C@H]3O[C@@H](CO)[C@@H](O)[C@@H]3O)c2[nH]1", "inactive"),
    ("N[C@H](Cc1cc(I)c(Oc2cc(I)c(O)c(I)c2)c(I)c1)C(=O)O", "inactive"),
    ("C=C1C[C@@]23C[C@]1(O)CC[C@@H]2[C@]12C=C[C@@H](O)[C@](C)(C(=O)O1)[C@H]2[C@H]3C(=O)O", "inactive"),
    ("CC(=O)c1cc2ccccc2oc1=O", "inactive"),
    ("CC(C)n1c(/C=C\\[C@@H](O)C[C@@H](O)CC(=O)O)c(-c2ccc(F)cc2)c2ccccc21", "inactive"),
    ("CO[C@@H]1CC[C@@]2(C)[C@@H](CC[C@@]3(C)[C@H]2CC=C2[C@H]4CC(C)(C)[C@H](O)[C@@H](OC(C)=O)[C@]4(CO)[C@H](O)C[C@]23C)[C@@]1(C)CO (tested in a mixture with another compound)", "inactive"),
    ("CC(C)(C)NC(=O)[C@@H]1C[C@H]2CCCC[C@@H]2CN1C[C@H](O)[C@H](Cc1ccccc1)NC(=O)[C@@H](CC(N)=O)NC(=O)c1ccc2ccccc2n1", "inactive"),
    ("CS(=O)(=O)c1ccc([C@H](O)[C@H](CO)NC(=O)C(Cl)Cl)cc1", "inactive"),
    ("CN(C/C=C\\c1ccccc1)Cc1cccc2ccccc12", "inactive"),
    ("C=CCSC[C@@H]1Nc2cc(Cl)c(S(N)(=O)=O)cc2S(=O)(=O)N1", "inactive"),
    ("COc1cc2nc(N3CCN(C(=O)[C@@H]4CCCO4)CC3)nc(N)c2cc1OC", "inactive"),
    ("O=C(O)[C@@H]1CCCNC1", "inactive"),
    ("CC[N+]1(C)[C@@H]2CC[C@H]1CC(OC(=O)[C@H]1CC[C@@](C(=O)OC3C[C@H]4CC[C@@H](C3)[N+]4(C)CC)(c3ccccc3)c3ccccc31)C2 (some centres not stated)", "inactive"),
    ("CC(=O)/C(C)=N\\O", "inactive"),
    ("CC1=C(C(=O)O)N2C(=O)[C@@H](NC(=O)[C@@H](N)c3ccc(O)cc3)[C@@H]2SC1", "inactive"),
    ("C[C@]12C=CC(=O)C=C1CC[C@@H]1[C@H]3C[C@@H](O)[C@](O)(C(=O)CO)[C@@]3(C)C[C@H](O)[C@]12F", "active"),
    ("Nc1c(O)cccc1C(=O)C[C@@H](N)C(=O)O", "inactive"),
    ("CC[C@H](Cc1c(I)cc(I)c(N)c1I)C(=O)O", "inactive"),
    ("CC(=O)S[C@H]1CC2=CC(=O)CC[C@@]2(C)[C@H]2CC[C@@]3(C)[C@H](CC[C@]34CCC(=O)O4)[C@@H]12", "inactive"),
    ("CC=C(/C(=C/C)c1ccc(O)cc1)c1ccc(O)cc1", "inactive"),
    ("CO[C@H]1[C@H](O[C@H]2O[C@@H](C)[C@@H](O[C@@H]3C[C@](C)(O)[C@H](O)[C@H](C)O3)[C@@H](N(C)C)[C@@H]2O)[C@@H](CC=O)C[C@@H](C)[C@@H](O[C@H]2CC[C@H](N(C)C)[C@H](C)O2)/C=C\\C=C/C[C@@H](C)OC(=O)C[C@H]1O", "inactive"),
    ("COc1c2c(nc3ccccc13)O[C@H]([C@@](C)(O)CO)C2", "inactive"),
    ("Clc1ccc(CC[C@H](Cn2ccnc2)Sc2c(Cl)cccc2Cl)cc1", "inactive"),
    ("C/C(=C\\CNc1ncnc2nc[nH]c12)CO", "inactive"),
    ("C[C@H](N)CCCC(C)(C)O", "inactive"),
    ("CCN(CCCCOC(=O)c1ccc(OC)c(OC)c1)[C@@H](C)Cc1ccc(OC)cc1", "inactive"),
]
